Biological target: Tyrosine-protein kinase Fgr (Homo sapiens)
Assay: FGR kinase inhibition, dose response, biochemical, Z'-LYTE, FRET readout, direct format (AID 1671277)
Conditions: Z'-LYTE FRET kinase activity, recombinant FGR
quantity kind: IC50

IC50 lookup needed for COc1cc2ncnc(Nc3cccc(Cl)c3)c2cc1OC , thanks.
919 nM
